Numbers sourced from PubChem BioAssay (NCI).

growth inhibition reference
experiment: NCI Yeast Anticancer Drug Screen. Data for the cln2 rad14 strain (AID 165);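 note: 0% = growth equal to vehicle treated cultures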; settings: S. cerevisiae cln2 rad14 strain, at 50.0 µM, hits give high values
This is part of a sample that, as a whole, favours compounds with a hit. Of some 79,000 tested, about 15% had one in any assay. The source made the active and inactive calls. Cut-off read from the data, not from the text of the source: active = growth inhibition above about 70%; inactive = the rest.

>>> df
                                   molecule  measured_attribute       result_value
0  Nc1nc(N)c2nc(CNc3ccc(C(=O)NC(CCC(=O)O)C(=O)O)cc3)cnc2n1 (stereo not drawn)   growth inhibition  -48.9% (inactive)
1  CC1=NC(C)=C(/C(C)=N/NC(=O)c2ccccc2O)C(C)/C1=C(/C)NNC(=O)c1ccccc1O (stereo not drawn)   growth inhibition     62% (inactive)

Turning now to a further record.
Data request: Fill in the blank: the reported growth inhibition of CCCCN(CCCC)Cc1ccc(NC(C(=O)c2ccccc2)c2ccccc2)cc1 (stereo not drawn) is ____.
Data returned: 97.2% (active)

====

growth inhibition reference
experiment: NCI Yeast Anticancer Drug Screen. Data for the sgs1 mgt1 strain (AID 161);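 note: 0% = growth of cultures given vehicle only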; settings: S. cerevisiae sgs1 mgt1 strain, at 5.0 µM (retest, dose inferred, filed as 0.5), hits give high values
About 79,000 compounds went through this panel and 15% of them were active in at least one assay; those are over-represented in the sample as a whole.
# number only, unit % dropped from output

Examples with answers:
In [3]: df
Out[3]:
                                   molecule  result_value
0  COc1ccc(-c2c(C#N)c(-c3ccc(C)cc3)n(NS(=O)(=O)c3ccc(C)cc3)c(=O)c2C#N)cc1            -3
1  C/C=C/CC(C/C=C/C)C1CC[N-]CC1.C/C=C/CC(C/C=C/C)C1CC[N-]CC1.[Cl][Pt+2]([Cl])([Cl])[Cl]             3

Data request: Fill in the blank: the reported growth inhibition of CC(C)CNc1cc(Cl)nc(N)n1 is ____.
Data returned: 2

Data request: Fill in the blank: the reported growth inhibition of COc1ccc(C(SCC(N)C(=O)O)(c2ccc(OC)cc2)c2ccc(OC)cc2)cc1 (stereo not drawn) is ____.
Data returned: -4

====

growth inhibition reference
assay: NCI Yeast Anticancer Drug Screen. Data for the cln2 rad14 strain (AID 165);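 note: 0% = growth equal to vehicle treated cultures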; conditions: S. cerevisiae cln2 rad14 strain, at 5.0 µM (retest, dose inferred, filed as 0.5), hits give high values
About 79,000 compounds went through this panel and 15% of them were active in at least one assay; those are over-represented in the sample as a whole. Activity calls are given as the source filed them. No stated cut-off is given here; in the data, active means growth inhibition above about 70%; inactive means the rest.

Data request: Fill in the blank: the reported growth inhibition of Cc1ccc2c(ccc(CC(=S)[S-])[n+]2C)c1 is ____.
Data returned: 10% (inactive)

Data request: Fill in the blank: the reported growth inhibition of c1ccc(CN2CCc3[nH]c4ccccc4c3C2)cc1 is ____.
Data returned: -1% (inactive)

Data request: Fill in the blank: the reported growth inhibition of O=C(CSC1=NNC2(C(=O)N1)c1ccccc1-c1ccccc12)NC(=S)Nc1ccccc1 is ____.
Data returned: -8% (inactive)

====

experiment: NCI Yeast Anticancer Drug Screen. Data for the mec2-1 strain (AID 157); conditions: S. cerevisiae mec2-1 strain, at 5.0 µM (retest, dose inferred, filed as 0.5), hits give high values
About 79,000 compounds went through this panel and 15% of them were active in at least one assay; those are over-represented in the sample as a whole.
# label = label 1 if growth inhibition >= 10% else label 0

Below are worked cases with known answers.
                                   molecule    label
0    CCCCC(CC)(CCC)CCN (stereo unspecified)  label 0
1  C[N+](C)([O-])CCOc1cc2c(c3ccccc13)-c1ccccc1C2=O  label 0
2       Cc1ccc2nc(C[n+]3ccc4ccccc4c3)ccc2c1  label 0
3  O=C(Cl)c1cc(-c2ccc(Cl)cc2)nc2c(Cl)cccc12  label 1
4     O=C(O/N=C1/CCC/C1=C\c1ccccc1)c1ccccc1  label 1

Data request: Please check the record Cc1ccc(C)c(NC(=O)CC2SC(=Nc3ccccc3Cl)NC2=O)c1 (stereo unspecified) and state if its growth inhibition is at or above 10%.
Data returned: label 1

Data request: Please check the record CC1C(c2ccc3c(c2)OCO3)c2cc3c(cc2OC1N1CCOCC1)OCO3 (stereo unspecified) and state if its growth inhibition is at or above 10%.
Data returned: label 1

Data request: Please check the record O=[N+]([O-])c1ccc2c(c1)OCO2 and state if its growth inhibition is at or above 10%.
Data returned: label 0

Data request: Please check the record Cc1cc(N)c2c(c1O)C(=O)c1ccccc1C2=O and state if its growth inhibition is at or above 10%.
Data returned: label 0

Data request: Please check the record CCCCCCCNc1ccc2c(cc1=O)C(NC(C)=O)CCc1cc(OC)c(OC)c(OC)c1-2 (stereo unspecified) and state if its growth inhibition is at or above 10%.
Data returned: label 0

====

assay: NCI Yeast Anticancer Drug Screen. Data for the bub3 strain (AID 167); settings: S. cerevisiae bub3 mutant strain, at 50.0 µM (retest, dose inferred, filed as 5.0), hits give high values
Compounds without any hit were thinned out: in the full panel of roughly 79,000, 15% have a hit.
# label = 1.0 if growth inhibition >= 70% else 0.0

Below are worked cases with known answers.
In [3]: df
Out[3]:
                                   compound  label
0  N#CC1C(=O)SC2c3ccccc3C(=O)c3ccccc3C12 (stereo unspecified)    0.0
1    Nc1ncnc2c1c(-c1ccccc1)cn2-c1ccc(Cl)cc1    0.0
2       CCOC(=O)c1c(-c2ccccc2)csc1NC(=O)CBr    1.0
3  C/C(=N/Nc1ccc([N+](=O)[O-])cc1[N+](=O)[O-])C1=CCC(C(C)(C)C)CC1 (stereo unspecified)    0.0
4                       O=C1CCCC/C1=C(\Br)I    1.0
5  COc1cc(C2=N/C(=C\c3ccccc3O)C(=O)O2)cc(OC)c1OC    0.0

Data request: Please check the record OCc1ccccc1CC(O)(c1ccccc1)c1ccccc1 and state if its growth inhibition is at or above 70%.
Data returned: 0.0

Data request: Please check the record O=S(O)CCCCCSSc1ccccc1 and state if its growth inhibition is at or above 70%.
Data returned: 1.0

Data request: Please check the record Cc1ccc(-n2cc(-c3ccc(Cl)cc3)c3c(N)ncnc32)cc1 and state if its growth inhibition is at or above 70%.
Data returned: 1.0

====

test: NCI Yeast Anticancer Drug Screen. Data for the bub3 strain (AID 167); settings: S. cerevisiae bub3 mutant strain, at 50.0 µM (retest, dose inferred, filed as 5.0)
About 79,000 compounds went through this panel and 15% of them were active in at least one assay; those are over-represented in the sample as a whole. The source made the active and inactive calls. Rule as the data show it: active = growth inhibition above about 70%; inactive = the rest.
Select the matching outcome among yes for active, no for inactive

Below are worked cases with known answers.
Compound	Label
CC(C(O)c1ccccc1)[N+](=O)[O-] (configuration not stated)	yes
C=C1C[C@@]2(OC)OCC[C@H]3C(C)=CCC(C1=O)[C@]32C(=O)OC (some centres not stated)	yes
COc1ccccc1OC(=O)Oc1ccccc1OC	no
O=C1CCCc2cc3c(nc21)C(=O)CCC3	no
COC1C=COC2(C)Oc3c(C)c(O)c4c(O)c(c(C5SCCS5)c(O)c4c3C2=O)NC(=O)C(C)=C/C=C\C(C)C2OC(C)(C)OC(C2C)C(C)C(OC(C)=O)C1C (configuration not stated)	yes

Data request: Tell me the assay call for COC(=O)Nc1nc2ccc(C(=O)c3ccccc3)cc2[nH]1 please.
Data returned: no

Data request: Tell me the assay call for COc1ccccc1NC(=O)CC(=O)N1N=C(C)C(N=Nc2ccc(C(=O)O)cc2)C1=O (configuration not stated) please.
Data returned: no

Data request: Tell me the assay call for N#Cc1cc2cccn2c2c1cnn2-c1ccccc1 please.
Data returned: no

====

assay: NCI Yeast Anticancer Drug Screen. Data for the rad50 strain (AID 155);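 note: 0% = growth of vehicle-only cultures of the same strain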; conditions: S. cerevisiae rad50 strain growth inhibition; at 5.0 µM (retest, dose inferred, filed as 0.5); hits give high values
The panel holds about 79,000 compounds, 15% with a hit somewhere; the sample as a whole holds those more often.
Measured Attribute: growth inhibition (%)
# number only, unit % dropped from output

Molecule	growth inhibition / %
CCCCCCCCCCCCCCNCc1ccccc1	99
CN(C)CC(CN(C)C)C(=O)c1ccc(Oc2ccc(Cl)c(Cl)c2)cc1	18
O=C(Nc1ccccc1)OCCc1ccc(Br)cc1	-10
O=C1/C(=C/O)CCc2c1ccc1ccccc21	15
Cc1ccc2c(ccc3c[n+]4c5ccccc5ccc4n32)c1	96

Data request: Fill in the blank: the reported growth inhibition of COc1cc(C(c2cc3c(cc2O)OCO3)N2CCCCC2)cc(OC)c1OC (stereo not given) is ____.
Data returned: -4
